The measured values listed here are drawn from patent US4202802A.

Test system: growth hormone (GH) secretion
Test: Growth Hormone Inhibition In Rats (pentobarbital-stimulated GH secretion, serum GH by radioimmunoassay)
Assay type: in vivo
Details: male rats, peptide S.C., Dose (mg/kg) 50
Protocol: This test is a modification of the method of P. Brazeau et al. Endocrinology, 94, 184 (1974). Male rats (weighing 100-110 g.) are divided into three groups of eight rats each. […] The serum concentration of growth hormone (GH) is determined by radioimmunoassay. The mean GH concentration (±standard error of the mean) is calculated for each group. The percent inhibition of GH release (as compared to saline controls) is then calculated for the test compound and for somatostatin. […]
Bridge positions count the residues as written; N and C are the ends. Square brackets hold non-standard residues; d marks the D form. Peptide text beside a SMILES is read from it.
Reported values of % Inhibition of GH release (as compared to saline controls) for individual entries
# include the unit after the value

1) CC(C)[C@@H](N)C(=O)NCC(=O)N[C@H]1CSSC[C@@H](C(=O)O)NC(=O)[C@H](CO)NC(=O)[C@H]([C@@H](C)O)NC(=O)[C@@H](Cc2ccccc2)NC(=O)[C@H]([C@@H](C)O)NC(=O)[C@H](CCCCN)NC(=O)[C@@H](Cc2c[nH]c3ccccc23)NC(=O)[C@H](Cc2ccccc2)NC(=O)[C@@H](Cc2ccccc2)NC(=O)[C@H](C)NC(=O)[C@H](CCCCN)NC1=O [Example 4] (H-[dV]GCKA[dF]F[dW]KT[dF]TSC-OH; disulfide 3-14) : 68.1%
2) CC(C)[C@@H](N)C(=O)NCC(=O)N[C@H]1CSSC[C@@H](C(=O)O)NC(=O)[C@H](CO)NC(=O)[C@H]([C@@H](C)O)NC(=O)[C@@H](Cc2ccccc2)NC(=O)[C@H]([C@@H](C)O)NC(=O)[C@H](CCCCN)NC(=O)[C@@H](Cc2c[nH]c3ccccc23)NC(=O)[C@H](Cc2ccccc2)NC(=O)[C@H](Cc2ccccc2)NC(=O)[C@H](C)NC(=O)[C@H](CCCCN)NC1=O [Example 7] (H-[dV]GCKAFF[dW]KT[dF]TSC-OH; disulfide 3-14) : 77.5%

Ask | Consider the molecule shown here: CC(C)C[C@@H]1NC(=O)[C@H](C)NC(=O)[C@H](CCCCN)NC(=O)[C@@H](NC(=O)CNC(=O)[C@H](N)C(C)C)CSSC[C@@H](C(=O)O)NC(=O)[C@H](CO)NC(=O)[C@H]([C@@H](C)O)NC(=O)[C@@H](Cc2ccccc2)NC(=O)[C@H]([C@@H](C)O)NC(=O)[C@H](CCCCN)NC(=O)[C@@H](Cc2c[nH]c3ccccc23)NC(=O)[C@H](Cc2ccccc2)NC1=O [Example 10] (H-[dV]GCKALF[dW]KT[dF]TSC-OH; disulfide 3-14) What is its recorded % Inhibition of GH release (as compared to saline controls)?
Reply | 29.3%
